// pKd lookup, one value per entry
Molecular target: PYL6 (Arabidopsis thaliana)
Construct: NT-647-NHS labelled
Sequence (Q8S8E3 1-215): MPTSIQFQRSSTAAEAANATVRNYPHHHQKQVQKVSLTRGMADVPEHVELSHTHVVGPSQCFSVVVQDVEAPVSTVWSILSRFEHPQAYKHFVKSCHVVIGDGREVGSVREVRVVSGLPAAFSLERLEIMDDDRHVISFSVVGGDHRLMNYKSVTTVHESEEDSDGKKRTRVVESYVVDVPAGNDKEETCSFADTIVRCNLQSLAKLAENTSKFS
Assay: microscale thermophoresis
Type: binding
Note on pKd: it is the negative log10 of concentration, concentration in mol/L.

INSERT INTO results (molecule, target_entity, recorded_metric, observed_result) VALUES
  ('CC(=C/C(=O)O)/C=C/C1(O)CC(C)(C)C(=O)c2cc(OCCCCc3ccccc3)ccc21 (stereo not shown) [APA11]', 'PYL6 (Arabidopsis thaliana)', 'pKd', 6.05),
  ('COCCOCCOc1ccc2c(c1)C(=O)C(C)(C)CC2(O)/C=C/C(C)=C\C(=O)O (stereo not shown) [APA18]', 'PYL6 (Arabidopsis thaliana)', 'pKd', 5.38),
  ('CC1=CC(=O)CC(C)(C)[C@@]1(O)/C=C/C(C)=C\C(=O)O [compound 1, ABA]', 'PYL6 (Arabidopsis thaliana)', 'pKd', 4.71);

# context switch: different molecule, same pKd
Form entry - test system: PYL6 (Arabidopsis thaliana); read-out: pKd; molecule: CCOCCOc1ccc2c(c1)C(=O)C(C)(C)CC2(O)/C=C/C(C)=C\C(=O)O (stereo not shown) [APA17] 4.88

All values here come from paper PMC11243256.
